- subject-of-test: ALK (Homo sapiens, UniProt Q9UM73)
- Construct: host or cells: baculovirus expression system
- Sequence (Q9UM73 19-1620): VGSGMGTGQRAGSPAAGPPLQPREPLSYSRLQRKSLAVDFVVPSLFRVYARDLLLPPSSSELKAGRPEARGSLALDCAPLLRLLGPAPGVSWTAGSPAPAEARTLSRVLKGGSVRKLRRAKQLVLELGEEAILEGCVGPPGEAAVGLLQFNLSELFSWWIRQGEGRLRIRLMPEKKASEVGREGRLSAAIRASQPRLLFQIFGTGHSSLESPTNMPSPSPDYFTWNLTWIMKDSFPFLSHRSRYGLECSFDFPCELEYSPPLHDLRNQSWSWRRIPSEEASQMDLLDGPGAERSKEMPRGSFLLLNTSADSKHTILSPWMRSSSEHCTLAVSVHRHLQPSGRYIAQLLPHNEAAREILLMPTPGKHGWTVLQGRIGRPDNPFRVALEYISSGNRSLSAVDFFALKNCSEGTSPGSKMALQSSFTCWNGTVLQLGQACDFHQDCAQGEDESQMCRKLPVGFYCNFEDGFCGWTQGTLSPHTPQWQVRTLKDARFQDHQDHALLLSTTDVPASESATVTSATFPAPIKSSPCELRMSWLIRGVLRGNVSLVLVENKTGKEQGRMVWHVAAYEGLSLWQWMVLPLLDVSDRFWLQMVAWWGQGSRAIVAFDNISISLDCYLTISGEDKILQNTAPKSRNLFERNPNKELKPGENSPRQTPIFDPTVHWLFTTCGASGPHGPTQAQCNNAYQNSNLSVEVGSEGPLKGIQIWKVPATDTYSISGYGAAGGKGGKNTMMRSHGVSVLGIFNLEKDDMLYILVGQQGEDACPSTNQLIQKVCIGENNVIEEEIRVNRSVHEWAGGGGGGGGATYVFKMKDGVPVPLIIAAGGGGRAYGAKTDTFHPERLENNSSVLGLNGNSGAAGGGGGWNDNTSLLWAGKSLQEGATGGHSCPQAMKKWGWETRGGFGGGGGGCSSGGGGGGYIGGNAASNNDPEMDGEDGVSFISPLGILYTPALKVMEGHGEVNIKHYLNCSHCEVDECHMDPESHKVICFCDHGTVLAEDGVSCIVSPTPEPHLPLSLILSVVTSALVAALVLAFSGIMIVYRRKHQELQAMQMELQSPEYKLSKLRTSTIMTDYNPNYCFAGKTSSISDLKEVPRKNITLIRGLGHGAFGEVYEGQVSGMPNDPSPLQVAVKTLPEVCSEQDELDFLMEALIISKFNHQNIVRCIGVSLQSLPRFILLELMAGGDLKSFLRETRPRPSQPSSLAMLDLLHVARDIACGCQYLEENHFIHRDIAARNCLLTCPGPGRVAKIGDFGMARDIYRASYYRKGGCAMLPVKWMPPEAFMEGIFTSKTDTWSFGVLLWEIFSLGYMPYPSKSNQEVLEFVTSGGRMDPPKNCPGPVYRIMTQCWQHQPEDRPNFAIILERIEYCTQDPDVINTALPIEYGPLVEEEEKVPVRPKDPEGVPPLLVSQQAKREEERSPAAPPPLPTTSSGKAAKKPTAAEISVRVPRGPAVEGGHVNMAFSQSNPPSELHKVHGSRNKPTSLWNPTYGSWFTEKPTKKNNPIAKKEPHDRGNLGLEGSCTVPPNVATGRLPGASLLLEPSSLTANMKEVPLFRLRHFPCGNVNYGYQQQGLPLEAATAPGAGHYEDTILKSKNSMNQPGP
- experiment-notes: ALK Kinase Assay (ELISA/TRF, PLC-γ substrate)
- Type: biochemical
- measurement-parameters: ALK kinase inhibition, 1 μM ATP; read-out: ALK Potency
- Procedure: Briefly, each 96-well plate was coated with […] of 10 μg/mL substrate (phospholipase C-γ) in Tris-buffered saline (TBS). […] The reaction was initiated by adding enzyme (30 ng/ml ALK) and was allowed to proceed at 37° C. for 15 minutes. Detection of the phosphorylated product was performed by adding 100 μl/well of Eu—N1 labeled PT66 antibody (Perkin Elmer # AD0041). Data analysis was performed using ActivityBase (IDBS, Guilford, UK). […]
pIC50: −log10 of the molar value.

{"compound": "COc1cc(N2CCN(C[C@H](C)O)CC2)ccc1Nc1ncc2ccc(-c3ccccc3S(C)(=O)=O)n2n1", "pIC50": "6.00 to 7.00"}
{"compound": "CN1CCN(c2ccc(Nc3ncc4ccc(-c5ccccc5N(C)S(C)(=O)=O)n4n3)cc2)CC1", "pIC50": "> 7.00"}
{"compound": "COc1cc(C2CCN(C[C@H](O)CO)CC2)ccc1Nc1ncc2ccc(-c3cccc(S(=O)(=O)NC(C)(C)C)c3)n2n1", "pIC50": "> 7.00"}
{"compound": "CN1CCN(c2ccc(Nc3ncc4ccc(-c5ccc(N)nc5)n4n3)cc2)CC1", "pIC50": "6.00 to 7.00"}
{"compound": "CN1CCN(c2ccc(Nc3ncc4ccc(NCc5ccncc5)n4n3)cc2)CC1", "pIC50": "5.00 to 6.00"}
{"compound": "Cn1cnc2ccc(Nc3ncc4ccc(-c5ccccc5NS(C)(=O)=O)n4n3)cc21", "pIC50": "6.00 to 7.00"}
{"compound": "COc1ccccc1-c1ccc2cnc(Nc3ccc(C4CCN(C(=O)C5CCN(C)CC5)CC4)cc3)nn12", "pIC50": "> 7.00"}
{"compound": "COc1ccc(-c2ccc3cnc(Nc4ccc(CN5CCS(=O)(=O)CC5)cc4)nn23)cn1", "pIC50": "< 5.00"}
{"compound": "COc1ccc(-c2ccc3cnc(Nc4ccc(-c5cccnc5)cc4)nn23)cn1", "pIC50": "5.00 to 6.00"}
{"compound": "COc1ccc(-c2ccc3cnc(Nc4ccc(C5C(=O)N(C)CCN5C)cc4)nn23)cn1 (stereo not drawn)", "pIC50": "5.00 to 6.00"}
{"compound": "COc1cc(N2CCC(N3CCOCC3)CC2)ccc1Nc1ncc2ccc(-c3c(OC)cccc3OC)n2n1", "pIC50": "6.00 to 7.00"}
{"compound": "CN1CCN(c2cccc(Nc3ncc4ccc(-c5cn[nH]c5)n4n3)c2)CC1", "pIC50": "6.00 to 7.00"}
{"compound": "COc1ccc(Cl)cc1-c1ccc2cnc(Nc3ccc(C4CCN(C)CC4)cc3)nn12", "pIC50": "> 7.00"}
{"compound": "CN1CCCC1COc1cccc(Nc2ncc3ccc(-c4cnn(C)c4)n3n2)c1 (stereo not drawn)", "pIC50": "6.00 to 7.00"}
{"compound": "CS(=O)(=O)c1cccc(-c2ccc3cnc(Nc4ccc(CN5CCS(=O)(=O)CC5)cc4)nn23)c1", "pIC50": "5.00 to 6.00"}
{"compound": "COc1cc(N2CCCN(C[C@@H](C)O)CC2)ccc1Nc1ncc2ccc(-c3ccccc3N(C)S(C)(=O)=O)n2n1", "pIC50": "> 7.00"}
{"compound": "COc1cc(CN2CCN(C(=O)CN)CC2)ccc1Nc1ncc2ccc(-c3ccccc3OC)n2n1", "pIC50": "> 7.00"}
{"compound": "Cn1cc(-c2ccc3cnc(Nc4ccc(N5CCC(N6CCOCC6)CC5)cc4)nn23)cn1", "pIC50": "6.00 to 7.00"}
{"compound": "COc1cc(C2CCN(CC3CCN3C)CC2)ccc1Nc1ncc2ccc(-c3ccccc3N(C)S(C)(=O)=O)n2n1 (racemic)", "pIC50": "> 7.00"}
{"compound": "CN(C)C1CCC(c2ccc(Nc3ncc4ccc(-c5cccc(S(=O)(=O)NC(C)(C)C)c5)n4n3)cc2)CC1 (stereo not drawn)", "pIC50": "6.00 to 7.00"}
{"compound": "CS(=O)(=O)N1Cc2cccc(-c3ccc4cnc(Nc5ccc(C6CN(CC(N)=O)C6)cc5)nn34)c2C1", "pIC50": "5.00 to 6.00"}
{"compound": "COc1cc(N(C)C(=O)CN2CCN(C)CC2)ccc1Nc1ncc2ccc(-c3ccccc3N(C)S(C)(=O)=O)n2n1", "pIC50": "6.00 to 7.00"}
{"compound": "COc1cc(CCN2CCN(C)CC2)ccc1Nc1ncc2ccc(-c3ccccc3OC)n2n1", "pIC50": "> 7.00"}
{"compound": "CC(C)(C)NS(=O)(=O)c1cccc(-c2ccc3cnc(Nc4ccc5c(c4)NC(=O)C5)nn23)c1", "pIC50": "5.00 to 6.00"}
{"compound": "CCN(c1ccccc1-c1ccc2cnc(Nc3ccc(C4CCN(C[C@@H](C)O)CC4)cc3OC)nn12)S(C)(=O)=O", "pIC50": "> 7.00"}
{"compound": "CN1CCN(c2ccc(Nc3ncc4ccc(-c5cccc(CN(C)S(C)(=O)=O)c5)n4n3)cc2)CC1", "pIC50": "6.00 to 7.00"}
{"compound": "CN1CCC(c2ccc(Nc3ncc4ccc(-c5cccc(S(=O)(=O)NC6CC6)c5)n4n3)cc2)CC1", "pIC50": "> 7.00"}
{"compound": "OCC1CCN(c2ccc(Nc3ncc4ccc(-c5cccc(Cl)c5)n4n3)cc2)CC1", "pIC50": "6.00 to 7.00"}
{"compound": "CN1CCN(c2ccc(Nc3ncc4ccc(-c5ccccc5N(C)S(C)(=O)=O)n4n3)nc2)CC1", "pIC50": "6.00 to 7.00"}
{"compound": "Cc1cc(Nc2ncc3ccc(-c4cccc(S(C)(=O)=O)c4)n3n2)ccc1C1CCN(CC(N)=O)CC1", "pIC50": "> 7.00"}
